Numbers sourced from patent US9371320B2.

Molecular target: JAK1 (Homo sapiens, UniProt P23458)
Construct: purchased Invitrogen
Sequence (P23458 whole entry): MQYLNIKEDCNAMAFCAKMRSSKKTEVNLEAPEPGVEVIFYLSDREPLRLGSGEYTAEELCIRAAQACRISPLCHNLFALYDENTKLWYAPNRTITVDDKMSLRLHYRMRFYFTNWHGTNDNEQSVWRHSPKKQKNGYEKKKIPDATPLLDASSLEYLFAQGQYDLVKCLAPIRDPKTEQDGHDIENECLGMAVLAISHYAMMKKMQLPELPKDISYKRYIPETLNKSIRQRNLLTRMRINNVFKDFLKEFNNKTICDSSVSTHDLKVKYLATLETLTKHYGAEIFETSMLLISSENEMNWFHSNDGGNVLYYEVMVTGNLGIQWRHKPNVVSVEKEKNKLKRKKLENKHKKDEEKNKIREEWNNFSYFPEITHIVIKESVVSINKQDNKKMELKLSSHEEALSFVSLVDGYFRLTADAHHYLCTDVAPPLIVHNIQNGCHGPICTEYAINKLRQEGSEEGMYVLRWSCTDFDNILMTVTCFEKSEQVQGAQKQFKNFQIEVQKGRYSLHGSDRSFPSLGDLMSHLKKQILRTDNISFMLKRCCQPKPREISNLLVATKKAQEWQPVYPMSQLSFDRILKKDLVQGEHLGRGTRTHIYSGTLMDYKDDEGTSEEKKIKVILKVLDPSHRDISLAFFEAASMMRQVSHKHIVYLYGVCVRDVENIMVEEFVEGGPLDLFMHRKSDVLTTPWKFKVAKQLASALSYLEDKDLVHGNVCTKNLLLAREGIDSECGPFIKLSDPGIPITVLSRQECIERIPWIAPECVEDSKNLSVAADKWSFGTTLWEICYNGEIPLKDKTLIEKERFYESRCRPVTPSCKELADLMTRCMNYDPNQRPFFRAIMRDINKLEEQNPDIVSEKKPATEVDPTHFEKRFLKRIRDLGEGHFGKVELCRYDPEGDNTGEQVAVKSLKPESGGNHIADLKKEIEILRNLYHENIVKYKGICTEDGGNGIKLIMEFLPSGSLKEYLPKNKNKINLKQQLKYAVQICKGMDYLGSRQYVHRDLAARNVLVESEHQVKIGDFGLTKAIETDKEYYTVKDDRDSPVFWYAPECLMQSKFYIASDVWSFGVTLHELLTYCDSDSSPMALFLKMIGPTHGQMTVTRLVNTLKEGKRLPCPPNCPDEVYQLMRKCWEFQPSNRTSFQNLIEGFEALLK
Assay: JAK1 enzyme inhibition test (LANCE method)
Type: biochemical
Conditions: test compound 1 μM; read-out: Inhibitory rate (%) JAK1 1 μM
Procedure: JAK1 Enzyme Inhibition Test JAK1 enzyme inhibitory activity of test compounds was measured by LANCE method (PerkinElmer). First, a test compound diluted with assay buffer (50 mM HEPES (pH=7.5), 10 mM MgCl2, 1 mM EGTA, 2 mM DTT, 0.01% Tween20, 0.01% BSA) was added to 384-well plate at 2 μL each. Then, a JAK1 (Invitrogen) solution and a fluorescence-labeled peptide substrate (ULight-JAK1, PerkinElmer) solution diluted with assay buffer at 187.5 ng/mL and 300 nM, respectively were added at 2 μL each. […]
Assignment: determine reported inhibition at 1 µM for the given compounds.
Field: value (include unit after the number)

The reported JAK1 (Homo sapiens, UniProt P23458) inhibition at 1 µM of O=c1[nH]cc(Cl)c2c1c(-c1cccc(OCCO)c1)nn2-c1c(F)cccc1F [Example 168] is 46%

Given the compound CNC(=O)c1cc(-c2cn(C3CCCC3)c3c(C(=O)NC)c[nH]c(=O)c23)cs1 [Example 63] and test system JAK1 (Homo sapiens, UniProt P23458), the measured inhibition at 1 µM is 59%

Let me check: CC(C)(C)n1nc(-c2ccc(S(N)(=O)=O)cc2)c2c(=O)[nH]ccc21 [Example 86] , system JAK1 (Homo sapiens, UniProt P23458), measured inhibition at 1 µM is 94%

inhibition at 1 µM value, target or system JAK1 (Homo sapiens, UniProt P23458), for CCC(COC)n1cc(-c2ccc(S(N)(=O)=O)cc2)c2c(=O)[nH]ccc21 (centres unmarked) [Example 17] : 87%

The compound N#Cc1cccc(F)c1-n1nc(-c2ccc(N3CCOCC3)cc2)c2c(=O)[nH]ccc21 [Example 305] , tested on JAK1 (Homo sapiens, UniProt P23458), showed inhibition at 1 µM of 93%

Short answer on JAK1 (Homo sapiens, UniProt P23458) for N#Cc1c[nH]c(=O)c2c(-c3ccccc3)cn(C3CCCC3)c12 [Example 103] , inhibition at 1 µM: 48%

JAK1 (Homo sapiens, UniProt P23458) assay, compound O=C(CO)N1CCN(c2ccc(-c3nn(-c4c(F)cccc4F)c4cc[nH]c(=O)c34)cc2)CC1 [Example 312] , recorded inhibition at 1 µM = 94%

Summary: CCNC(=O)c1cc(-c2cn(C3CCCC3)c3c(C#N)c[nH]c(=O)c23)cs1 [Example 122] , JAK1 (Homo sapiens, UniProt P23458), inhibition at 1 µM = 99%

* * *

Exercise: state measured inhibition at 10 µM for each of the molecules provided.
target: Tyk2 (Homo sapiens); construct: purchased Invitrogen; assay: Tyk2 enzyme inhibition test (LANCE method); type: biochemical; details: test compound 10 μM; read-out: Inhibitory rate (%) Tyk2 10 μM
Sequence (P29597 whole entry): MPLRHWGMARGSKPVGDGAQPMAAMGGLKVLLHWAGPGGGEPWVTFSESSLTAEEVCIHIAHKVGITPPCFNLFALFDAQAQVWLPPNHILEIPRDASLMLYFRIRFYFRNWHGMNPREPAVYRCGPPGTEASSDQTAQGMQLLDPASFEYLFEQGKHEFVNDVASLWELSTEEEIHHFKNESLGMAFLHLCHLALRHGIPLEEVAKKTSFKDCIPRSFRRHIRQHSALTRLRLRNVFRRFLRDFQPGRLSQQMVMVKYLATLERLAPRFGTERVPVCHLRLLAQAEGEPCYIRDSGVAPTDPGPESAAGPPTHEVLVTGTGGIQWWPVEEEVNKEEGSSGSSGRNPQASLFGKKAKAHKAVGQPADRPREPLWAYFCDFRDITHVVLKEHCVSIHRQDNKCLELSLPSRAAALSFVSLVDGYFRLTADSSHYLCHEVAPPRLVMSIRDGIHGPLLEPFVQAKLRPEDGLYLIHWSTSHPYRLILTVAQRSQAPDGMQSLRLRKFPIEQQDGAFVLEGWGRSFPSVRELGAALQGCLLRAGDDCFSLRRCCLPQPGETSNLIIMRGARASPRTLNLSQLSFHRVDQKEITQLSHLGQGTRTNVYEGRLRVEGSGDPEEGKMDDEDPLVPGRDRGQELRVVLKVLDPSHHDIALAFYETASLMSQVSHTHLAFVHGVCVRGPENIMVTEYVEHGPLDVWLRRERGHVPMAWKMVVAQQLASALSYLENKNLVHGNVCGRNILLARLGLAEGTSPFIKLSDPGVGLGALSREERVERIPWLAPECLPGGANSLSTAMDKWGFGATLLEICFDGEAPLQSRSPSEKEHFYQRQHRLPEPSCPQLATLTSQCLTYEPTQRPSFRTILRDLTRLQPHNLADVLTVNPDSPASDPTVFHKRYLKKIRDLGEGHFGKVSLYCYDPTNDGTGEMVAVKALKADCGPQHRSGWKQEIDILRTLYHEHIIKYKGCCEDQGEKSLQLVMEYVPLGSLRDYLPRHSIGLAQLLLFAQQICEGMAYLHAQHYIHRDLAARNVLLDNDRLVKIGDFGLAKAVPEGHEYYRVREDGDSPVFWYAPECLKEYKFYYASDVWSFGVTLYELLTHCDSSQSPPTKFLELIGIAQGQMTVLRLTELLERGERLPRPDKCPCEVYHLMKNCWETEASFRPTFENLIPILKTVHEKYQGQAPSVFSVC
A number alone suffices; assume %.

// sample CNC(=O)Cc1ccc(F)c(-c2nn(-c3c(F)cccc3F)c3cc[nH]c(=O)c23)c1 [Example 293] , its inhibition at 10 µM was 22

O=c1[nH]ccc2c(-c3ccccc3)nn(-c3ccccc3)c12 [Example 10] yielded inhibition at 10 µM of 38

Value of measured inhibition at 10 µM for the entry CNC(=O)c1ccc(F)c(-c2nn(-c3c(F)cccc3F)c3c(Cl)c[nH]c(=O)c23)c1 [Example 271] : 26

The molecule listed as CC(C)(C)n1nc(N)c2c(=O)[nH]ccc21 [Example 264] has a reported inhibition at 10 µM of 12

Record CNC(=O)c1ccc(-c2nn(-c3c(F)cccc3F)c3cc[nH]c(=O)c23)c(Cl)c1 [Example 295] , field inhibition at 10 µM: 80

inhibition at 10 µM measured on NS(=O)(=O)c1ccc(Cn2nc(-c3ccccc3)c3cc[nH]c(=O)c32)cc1 [Example 19] = 27

In plain terms, NC(=O)c1ccc(F)c(-c2nn(-c3c(F)cccc3F)c3c(Cl)c[nH]c(=O)c23)c1 [Example 269] has a documented inhibition at 10 µM of 29

# inhibition at 10 µM (molecule: COc1ccc(CNc2nn(C(C)(C)C)c3cc[nH]c(=O)c23)cc1 [Example 249] ) is 25

Lab note: measured inhibition at 10 µM of O=c1[nH]cc(Cl)c2c1c(C1CC1)nn2-c1c(F)cccc1F [Example 208] was 83

Lab note: measured inhibition at 10 µM of NC(=O)c1cc(-c2nn([C@H]3CC[C@@H](N)CC3)c3cc[nH]c(=O)c23)cs1 [Example 298] was 58

# inhibition at 10 µM (molecule: O=c1[nH]ccc2c1c(C1=CCCCC1)nn2C1CCCC1 [Example 41] ) is 49

So, NC(=O)c1ccc(F)c(-c2nn(-c3c(F)cccc3F)c3cc[nH]c(=O)c23)c1 [Example 267] ? Its inhibition at 10 µM was 31

inhibition at 10 µM recorded for this molecule, CNC(=O)c1ccc(F)c(-c2nn(-c3c(F)cccc3F)c3cc[nH]c(=O)c23)c1 [Example 272] , is 25

response.value for CC1(C)OCC(Cn2cc(-c3ccc(S(N)(=O)=O)cc3)c3c(=O)[nH]ccc32)O1 (stereo not shown) [Example 90] (field: inhibition at 10 µM) = 22

Value of measured inhibition at 10 µM for the entry CC(C)(C)n1nc(NC(=O)c2ccccc2)c2c(=O)[nH]ccc21 [Example 265] : 24

Looking up O=c1[nH]ccc2c1c(-c1ccccc1C(F)(F)F)nn2C1CCCC1 [Example 53] , I see its inhibition at 10 µM listed as 28

* * *

biological target: Tyk2 (Homo sapiens); construct: purchased Invitrogen; assay: Tyk2 enzyme inhibition test (LANCE method); format: biochemical; conditions: test compound 1 μM; read-out: Inhibitory rate (%) Tyk2 1 μM
What inhibition at 1 µM was measured for each of the following?
Form entry: enter the amount, then its unit.

inhibition at 1 µM reported for this compound COc1ccc(-c2nn(C3CCCC3)c3cc[nH]c(=O)c23)cc1 : 95%

Measured inhibition at 1 µM, O=c1[nH]ccc2c1c(-c1ccc3nonc3c1)nn2C1CCCC1 : 56%

Summary for this compound, Cc1ccc(-c2nn(C3CCCC3)c3cc[nH]c(=O)c23)cc1 : inhibition at 1 µM is 92%

Reported inhibition at 1 µM of CC[C@H](COC)n1nc(-c2csc(C(N)=O)c2)c2c(=O)[nH]ccc21 : 90%

Per the record, O=C(O)c1cc(-c2nn(C3CCOCC3)c3cc[nH]c(=O)c23)cs1 has inhibition at 1 µM of 98%

* * *

target: Tyk2 (Homo sapiens); construct: purchased Invitrogen; test: Tyk2 enzyme inhibition test (LANCE method); format: biochemical; conditions: test compound 1 μM; read-out: Inhibitory rate (%) Tyk2 1 μM
I'd be grateful if you could share measured inhibition at 1 µM for these entries.
Write the value in % as a bare number.

N#Cc1c[nH]c(=O)c2c1c(C1CCCC1)nn2-c1csc(C(N)=O)c1 [Example 66] has a reported inhibition at 1 µM of 92

According to the records, this compound CC(=O)N1CCN(c2ccc(-c3nn(-c4c(F)cccc4F)c4cc[nH]c(=O)c34)cc2)CC1 [Example 279] displays inhibition at 1 µM of 99

So for CS(=O)(=O)N1CCN(c2ccc(-c3nn(-c4c(F)cccc4F)c4cc[nH]c(=O)c34)cc2)CC1 [Example 311] , the logged inhibition at 1 µM turned out to be 99

Lab note: measured inhibition at 1 µM of NC(=O)c1cc(-c2cn(C3CCCC3)c3c(C(=O)O)c[nH]c(=O)c23)cs1 [Example 61] was 41

Lab book: inhibition at 1 µM of CC1(O)CCC(n2nc(-c3csc(C(N)=O)c3)c3c(=O)[nH]ccc32)CC1 (centres unmarked) [Example 198] noted as 100

Reported inhibition at 1 µM ( NC(=O)Cn1cc(-c2nn(-c3c(F)cccc3F)c3c(Cl)c[nH]c(=O)c23)cn1 [Example 190] ) = 99

Per the record, N#CCc1cccc(-c2nn(C3CCCC3)c3cc[nH]c(=O)c23)c1 [Example 128] has inhibition at 1 µM of 93

Entry C[C@H]1COCCN1c1ccc(-c2nn(-c3c(F)cccc3F)c3cc[nH]c(=O)c23)cc1 [Example 245] , inhibition at 1 µM reported as 100

* * *

molecular target: Tyk2 (Homo sapiens); construct: purchased Invitrogen; test: Tyk2 enzyme inhibition test (LANCE method); format: biochemical; conditions: test compound 1 μM; read-out: Inhibitory rate (%) Tyk2 1 μM
So I've got a bunch of compounds here, and I need their inhibition at 1 µM values.
Respond with the bare value in %.

Query N#Cc1c[nH]c(=O)c2c(-c3cnn(CC(N)=O)c3)cn(C3CCCC3)c12 [Example 98] yields inhibition at 1 µM of 97

The reported inhibition at 1 µM of the compound O=C(NC1CC1)c1cc(-c2nn(C3CCCC3)c3cc[nH]c(=O)c23)cs1 [Example 156] was 100

Measured inhibition at 1 µM of NS(=O)(=O)c1ccc(-c2cn(C3CCOCC3)c3cc[nH]c(=O)c23)cc1 [Example 16] : 88

For reference, reported inhibition at 1 µM for Cc1ccccc1-c1nn(-c2csc(C(=O)O)c2)c2c(=O)[nH]cc(C#N)c12 [Example 69] stands at 92

For record N#Cc1c[nH]c(=O)c2c(-c3ccc(N4CCOCC4)cc3)nn(-c3c(F)cccc3F)c12 [Example 229] the listed inhibition at 1 µM is 98

Looking up O=c1[nH]ccc2c1c(-c1cccc(F)c1)nn2C1CCCC1 [Example 55] , I see its inhibition at 1 µM listed as 85

Just so you know, measured inhibition at 1 µM for CC(=O)N1CCC(c2ccc(-c3nn(-c4c(F)cccc4F)c4cc[nH]c(=O)c34)cc2)CC1 [Example 301] came out at 99

# compound N#Cc1c[nH]c(=O)c2c(-c3csc(C(=O)O)c3)cn(C3CCCC3)c12 [Example 77] ; its inhibition at 1 µM = 99

Quick note, inhibition at 1 µM for O=c1[nH]ccc2c1c(-c1ccc(C3=CCOCC3)cc1)nn2-c1c(F)cccc1F [Example 256] landed at 98

Kindly note the recorded inhibition at 1 µM for O=C1CCCN1Cc1ccc(-c2nn(-c3c(F)cccc3F)c3c(Cl)c[nH]c(=O)c23)cc1 [Example 224] , which is 99

inhibition at 1 µM in this record for CNC(=O)c1cc(-c2cn(C3CCCC3)c3c(C#N)c[nH]c(=O)c23)cs1 [Example 108] : 100

Field inhibition at 1 µM (entry O=c1[nH]cc(Cl)c2c1c(-c1cccc(OCCO)c1)nn2-c1c(F)cccc1F [Example 168] ) reads 97

Lab book: inhibition at 1 µM of O=c1[nH]ccc2c1c(-c1cccc(CN3CCCC3)c1)nn2-c1c(F)cccc1F [Example 288] noted as 94

inhibition at 1 µM reading for NS(=O)(=O)c1ccc(-c2nn(C3CCC(O)CC3)c3cc[nH]c(=O)c23)cc1 (centres unmarked) [Example 119] : 99

// CC1(Cn2nc(-c3csc(C(N)=O)c3)c3c(=O)[nH]ccc32)COC1 [Example 141] : inhibition at 1 µM value = 92

Reported inhibition at 1 µM for O=C1CCCN1Cc1cc(-c2nn(-c3c(F)cccc3F)c3c(Cl)c[nH]c(=O)c23)cs1 [Example 220] was 100

inhibition at 1 µM recorded for this compound, NS(=O)(=O)c1ccc(-c2nn(-c3ccccc3C(F)(F)F)c3cc[nH]c(=O)c23)cc1 [Example 212] , is 96
